tested on: HEK-293T; test: Incucyte cell viability with HEK293T; assay type: toxicity, cell-based; details: human, 6 h, 10 µM, compound concentration 10 uM, replicate number 1; also: unitless GR value; below 1 slowed growth and below 0 cell loss
OUTCOME_MEASURE: Growth Rate
Reply with the value as a number alone.

> print(dat)
                                    compound  experimental.result
 1      c1ccc2nc(N3CCNCC3)ccc2c1 [QUIPAZINE]                 0.43
 2  Cl.O=C1c2cccc3c2[C@H](CCC3)CN1[C@@H]1CN2CCC1CC2 [PALONOSETRON HYDROCHLORIDE]                 0.51
 3     O=C(Nc1cccc(C(F)(F)F)c1)c1cc(Cl)ccc1O                 -0.8
 4  CC(C)NC(=O)[C@H]1CCC[C@H]1Nc1nc(Nc2ccc(CN(C)C)cc2)ncc1Br.Cl                -0.59
 5  O=S(=O)(Nc1nncs1)c1cc(Cl)c(Oc2ccc(C(F)(F)F)cc2-c2ccnn2C2CNC2)cc1F                  0.2
 6  COc1ncc2cc(C(=O)Nc3cc(C(=O)NCc4cccc(Cl)c4)ccc3Cl)c(=O)[nH]c2n1                 0.22
 7  C=C(C)[C@H]1CN[C@H](C(=O)O)[C@H]1CC(=O)O [KAINIC ACID]                  0.6
 8  CCCCCCCC/C=C\CCCCCCCC(=O)NCc1ccc(O)c(OC)c1 [OLVANIL]                -0.94
 9  CC(C)c1nc2c(c3c1[C@H](c1ccc(C(F)(F)F)cc1)OC31CCOCC1)[C@H](O)CC(C)(C)C2                -0.63
10      N[C@@H](Cn1cc(F)c(=O)[nH]c1=O)C(=O)O                 0.82

Exercise: Under HEK-293T: report Growth Rate of `CCc1cncnc1N1CCN(Cc2nc3cc(C(F)(F)F)ccc3[nH]2)CC1` .
Solution: 0.41

Exercise: Under HEK-293T: report Growth Rate of `CCCCNc1ncc2c(-c3ccc(CN4CCN(C)CC4)cc3)cn([C@H]3CC[C@H](O)CC3)c2n1` .
Solution: -0.33

Exercise: Under HEK-293T: report Growth Rate of `COc1cc(Nc2cnc(C#N)c(O[C@H](C)CN(C)C)n2)ncc1-c1cnn(C)c1` .
Solution: 0.63

Exercise: Under HEK-293T: report Growth Rate of `CNC(=O)COc1cc2cc(Nc3nc(N4CCC(C(=O)N(C)C)CC4)ncc3Cl)cc(OC)c2n(C)c1=O` .
Solution: 0.46

Exercise: Under HEK-293T: report Growth Rate of `COc1ccccc1N1CCN(c2ncnc3c2cnn3-c2ccccc2)CC1` .
Solution: 0.67

Exercise: Under HEK-293T: report Growth Rate of `CN(C)[C@H]1CC[C@H](Nc2ncc3ncnc(Nc4ccc(F)c(Cl)c4)c3n2)CC1` .
Solution: -0.21

Exercise: Under HEK-293T: report Growth Rate of Cc1c(C(=O)NCCCN(C)C)sc2ncnc(Nc3ccc(F)cc3OC(C)CF)c12 (centres undefined) .
Solution: -0.52

Exercise: Under HEK-293T: report Growth Rate of Nc1ccc(S(=O)(=O)Nc2ccnn2-c2ccccc2)cc1 [SULFAPHENAZOLE] .
Solution: 0.11

Exercise: Under HEK-293T: report Growth Rate of `Cc1nc2c(cc1F)c(-c1nnc3c(n1)NC(=O)C3(C)C)nn2Cc1cccc(F)c1F` .
Solution: 0.97
